- Test Summary: Lipophilicity, log P of the compound by HPLC analysis
- Type: physicochemical
Metric: logP
// return a plain number; no unit text

Compound	Recorded Measurement
O=c1c(Cc2cccc(O)c2)coc2ccccc12	3.31
O=C1/C(=C\c2ccccc2)C(c2ccccc2)Oc2ccc(O)cc21 (stereo not given)	3.45
O=C1/C(=C\c2ccc(Cl)cc2)C(c2ccccc2)Oc2ccccc21 (stereo not given)	4.53
O=C1/C(=C/c2ccc(Cl)cc2)C(c2ccccc2)Oc2ccccc21 (stereo not given)	4.46

Now look at this entry.
Which logP value is on record for `N#Cc1ccc(Cc2coc3ccccc3c2=O)cc1` ?
3.58

###

- Tested on: NALM-6
- Test Summary: Cytotoxicity against human NALM6 cells after 46 hrs by MTT assay
- Assay type: functional, cell-based
- Condition Set: NALM-6, 46 h
pIC50: −log10 of the molar value.
Binary classification by pIC50, with 5 as an inclusive lower bound for Fulfilled; all other cases are Not fulfilled.

Worked cases, answers included:
Compound	Qualitative Label
O=C1/C(=C\c2ccc(O)cc2)COc2ccccc21	Not fulfilled
O=C1/C(=C\c2ccc(Br)cc2)C(c2ccccc2)Oc2ccccc21 (centres undefined)	Not fulfilled
O=C1/C(=C/c2ccc(Br)cc2)C(c2ccccc2)Oc2ccccc21 (centres undefined)	Fulfilled
O=c1c(O)c(-c2ccc(O)c(O)c2)oc2cc(O)cc(O)c12	Not fulfilled
O=C1/C(=C\c2ccccc2)C(c2ccccc2)Oc2ccc(O)cc21 (centres undefined)	Not fulfilled
O=C1/C(=C\c2ccc(Cl)cc2)C(c2ccccc2)Oc2ccccc21 (centres undefined)	Not fulfilled

Field: next compound
API: above_or_equal(metric=pIC50, cutoff=5) for item Cc1ccc(/C=C2\C(=O)c3ccccc3OC2c2ccccc2)cc1 (centres undefined)
Not fulfilled

FYI, the data here is from ChEMBL document CHEMBL2401718.
